System: ragweed (common ragweed, Ambrosia elatior)
Test Name: Test A postemergence, ragweed
Format: in vivo
Experimental Setup: 125 g ai/ha, 0 to 100 scale
Measurement Name: Plant response rating, Ragweed
Give bare numbers.

Some entries whose results are on file:
Compound: O=C1NCC(Cc2cccc(C(F)(F)F)c2)C1C(=O)Nc1cccc(F)c1F (centres unmarked)
Plant response rating, Ragweed: 0
//
Compound: O=C1NCC(Cc2ccc(F)c(F)c2)C1C(=O)Nc1cccc(F)c1F (centres unmarked)
Plant response rating, Ragweed: 0
//
Compound: O=C1NCC(/C=C/c2ccccc2F)C1C(=O)Nc1cccc(F)c1F (centres unmarked)
Plant response rating, Ragweed: 0
//
Compound: O=C1NCC(/C=C/c2cccc(F)c2)C1C(=O)Nc1ccccc1F (centres unmarked)
Plant response rating, Ragweed: 0

Now consider a different compound.
QUERY: Which Plant response rating, Ragweed is listed for O=C1NCC(/C=C/c2ccccc2F)C1C(=O)Nc1ccccc1F (centres unmarked) ?
RESULT: 0

###

Test system: rice (Oryza sativa)
Test Name: Test B flooded paddy test, rice
Format: in vivo
Experimental Setup: Flood, 500 g ai/ha; scale of 0 to 100 where 0 is no effect and 100 is complete control; 13 to 15 d
Provide the recorded Plant response rating, Rice for the entries that follow.
Answers are plain numbers.

Some entries whose results are on file:
Compound: O=C1NCC(Cc2cccc(C(F)(F)F)c2)C1C(=O)Nc1cccc(F)c1F (stereo not drawn) [Compound 11]
Observed: 0
--
Compound: O=C1NCC(Cc2cccc(F)c2F)C1C(=O)Nc1ccccc1C(F)(F)F (stereo not drawn) [Compound 10]
Observed: 0
--
Compound: O=C1NCC(Cc2ccccc2C(F)(F)F)C1C(=O)Nc1cccc(F)c1F (stereo not drawn) [Compound 9]
Observed: 0
--
Compound: O=C(CCC1CNC(=O)C1C(=O)Nc1ccccc1F)Nc1ccc(F)cc1 (stereo not drawn) [Compound 15]
Observed: 0
--
Compound: O=C1NCC(Cc2ccc(F)c(F)c2)C1C(=O)Nc1cccc(F)c1F (stereo not drawn) [Compound 12]
Observed: 0
--
Compound: O=C1NCC(Cc2ccccc2C(F)(F)F)C1C(=O)Nc1ccccc1C(F)(F)F (stereo not drawn) [Compound 5]
Observed: 0
--
Compound: O=C1NCC(Cc2cccc(F)c2F)C1C(=O)Nc1cccc(F)c1F (stereo not drawn) [Compound 8]
Observed: 0
--
Compound: O=C1NCC(Cc2ccc(C(F)(F)F)cc2)C1C(=O)Nc1ccccc1C(F)(F)F (stereo not drawn) [Compound 6]
Observed: 0

Now consider a different compound.
QUERY: Which Plant response rating, Rice is listed for O=C1NCC(Cc2ccc(C(F)(F)F)cc2)C1C(=O)Nc1cccc(F)c1F (stereo not drawn) [Compound 7] ?
RESULT: 0

###

Test system: kochia (Kochia scoparia)
Test Name: Test A postemergence, kochia
Assay type: in vivo
Experimental Setup: 500 g ai/ha, 0 to 100 scale
Provide the recorded Plant response rating, Kochia for the entries that follow.
Give bare numbers.

Required: Plant response rating, Kochia, one value per molecule below.
1. O=C1NCC(C#Cc2ccc(F)cc2)C1C(=O)Nc1ccc(F)c(F)c1F (stereo not drawn)
2. O=C1NCC(C#Cc2cccc(Cl)c2)C1C(=O)Nc1ccccc1F (stereo not drawn) [Compound 29]
3. O=C1NCC(Cc2ccc(C(F)(F)F)cc2)C1C(=O)Nc1cccc(F)c1F (stereo not drawn)

RESULT:
1: 0; 2: 0; 3: 0

###

Provide the recorded Plant response rating, Corn for the entries that follow.
Test system: corn (Zea mays)
Test Name: Test A postemergence, corn
Format: in vivo
Experimental Setup: 500 g ai/ha, 0 to 100 scale
One number for each entry.

Required: Plant response rating, Corn, one value per molecule below.
1. O=C1NCC(C#Cc2ccc(F)cc2)C1C(=O)Nc1ccccc1F (centres unmarked)
2. O=C1NCC(Cc2cccc(F)c2F)C1C(=O)Nc1cccc(F)c1F (centres unmarked)

RESULT:
0
0

Required: Plant response rating, Corn, one value per molecule below.
1. O=C1NCC(/C=C/c2cccc(F)c2)C1C(=O)Nc1ccccc1F (centres unmarked)
2. O=C1NCC(CCc2ccccc2)C1C(=O)Nc1cccc(F)c1F (centres unmarked)
3. O=C1NCC(/C=C/c2ccccc2)C1C(=O)Nc1ccccc1F (centres unmarked)
4. O=C1NCC(Cc2cccc(F)c2F)C1C(=O)Nc1ccccc1C(F)(F)F (centres unmarked)
5. O=C1NCC(Cc2ccccc2C(F)(F)F)C1C(=O)Nc1ccccc1C(F)(F)F (centres unmarked)
6. Cc1cccc(C#CC2CNC(=O)C2C(=O)Nc2cccc(F)c2F)c1 (centres unmarked)

RESULT:
1: 0; 2: 0; 3: 20; 4: 0; 5: 0; 6: 20

Required: Plant response rating, Corn, one value per molecule below.
1. O=C1NCC(Cc2ccc(F)c(F)c2)C1C(=O)Nc1cccc(F)c1F (centres unmarked)
2. O=C1NCC(C#Cc2cccc(Cl)c2)C1C(=O)Nc1ccccc1F (centres unmarked) [Compound 29]

RESULT:
0
0

QUERY: Entry O=C1NCC(/C=C/c2ccc(F)cc2)C1C(=O)Nc1cccc(F)c1F (centres unmarked) , system corn (Zea mays): what Plant response rating, Corn was measured?
RESULT: 20

###

Tested on: foxtail, giant (giant foxtail, Setaria faberii)
Test Name: Test A postemergence, foxtail, giant
Format: in vivo
Experimental Setup: 125 g ai/ha, 0 to 100 scale
Measurement Name: Plant response rating, Foxtail, Giant
One number for each entry.

Compound: O=C1NCC(Cc2ccc(C(F)(F)F)cc2)C1C(=O)Nc1cccc(F)c1F (stereo not drawn) [Compound 7]
Plant response rating, Foxtail, Giant: 0
//
Compound: O=C(CCC1CNC(=O)C1C(=O)Nc1ccccc1F)Nc1ccc(F)cc1 (stereo not drawn) [Compound 15]
Plant response rating, Foxtail, Giant: 0
//
Compound: O=C1NCC(Cc2cccc(F)c2F)C1C(=O)Nc1ccccc1C(F)(F)F (stereo not drawn) [Compound 10]
Plant response rating, Foxtail, Giant: 0
//
Compound: O=C1NCC(Cc2ccccc2C(F)(F)F)C1C(=O)Nc1ccccc1C(F)(F)F (stereo not drawn) [Compound 5]
Plant response rating, Foxtail, Giant: 0
//
Compound: O=C1NCC(C#Cc2cccc(Cl)c2)C1C(=O)Nc1ccc(F)c(F)c1F (stereo not drawn) [Compound 26]
Plant response rating, Foxtail, Giant: 0

Now consider a different compound.
QUERY: Which Plant response rating, Foxtail, Giant is listed for O=C1NCC(C#Cc2ccc(F)cc2)C1C(=O)Nc1cccc(F)c1F (stereo not drawn) [Compound 16] ?
RESULT: 20

###

System: rice (Oryza sativa)
Test Name: Test B flooded paddy test, rice
Type: in vivo
Experimental Setup: Flood, 250 g ai/ha; scale of 0 to 100 where 0 is no effect and 100 is complete control; 13 to 15 d
Measurement Name: Plant response rating, Rice

Some entries whose results are on file:
Compound: O=C1NCC(CCc2ccccc2)C1C(=O)Nc1ccccc1F (stereo not drawn) [Compound 20]
Observed: 0
//
Compound: O=C1NCC(C#Cc2ccc(F)cc2)C1C(=O)Nc1ccc(F)c(F)c1F (stereo not drawn) [Compound 17]
Observed: 0
//
Compound: O=C1NCC(/C=C/c2ccccc2F)C1C(=O)Nc1cccc(F)c1F (stereo not drawn) [Compound 28]
Observed: 10
//
Compound: O=C1NCC(C#Cc2cccc(Cl)c2)C1C(=O)Nc1ccc(F)c(F)c1F (stereo not drawn) [Compound 26]
Observed: 0
//
Compound: O=C1NCC(C#Cc2ccc(F)cc2)C1C(=O)Nc1cccc(F)c1F (stereo not drawn) [Compound 16]
Observed: 0

Now consider a different compound.
QUERY: Which Plant response rating, Rice is listed for Cc1cccc(C#CC2CNC(=O)C2C(=O)Nc2ccccc2F)c1 (stereo not drawn) [Compound 21] ?
RESULT: 0

###

Test system: kochia (Kochia scoparia)
Test Name: Test A preemergence, kochia
Assay type: in vivo
Experimental Setup: 500 g ai/ha, 0 to 100 scale
Measurement Name: Plant response rating, Kochia

Some entries whose results are on file:
Molecule: O=C1NCC(/C=C/c2ccccc2F)C1C(=O)Nc1ccccc1F (centres unmarked)
Plant response rating, Kochia: 0
--
Molecule: O=C1NCC(CCc2ccccc2)C1C(=O)Nc1ccccc1F (centres unmarked)
Plant response rating, Kochia: 0
--
Molecule: O=C1NCC(/C=C/c2ccc(F)cc2)C1C(=O)Nc1ccccc1F (centres unmarked)
Plant response rating, Kochia: 40
--
Molecule: O=C1NCC(C#Cc2ccc(F)cc2)C1C(=O)Nc1ccc(F)c(F)c1F (centres unmarked)
Plant response rating, Kochia: 0
--
Molecule: O=C1NCC(/C=C/c2ccccc2)C1C(=O)Nc1ccccc1F (centres unmarked)
Plant response rating, Kochia: 0
--
Molecule: O=C1NCC(Cc2ccccc2C(F)(F)F)C1C(=O)Nc1cccc(F)c1F (centres unmarked)
Plant response rating, Kochia: 50

Required: Plant response rating, Kochia, one value per molecule below.
1. O=C1NCC(Cc2cccc(F)c2F)C1C(=O)Nc1cccc(F)c1F (centres unmarked)
2. O=C1NCC(C#Cc2cccc(Cl)c2)C1C(=O)Nc1ccc(F)c(F)c1F (centres unmarked)
3. O=C1NCC(/C=C/c2ccccc2F)C1C(=O)Nc1cccc(F)c1F (centres unmarked)
4. O=C(Nc1cccc(C(F)(F)F)c1)C1CNC(=O)C1C(=O)Nc1cccc(F)c1F (centres unmarked)
5. O=C1NCC(/C=C/c2cccc(F)c2)C1C(=O)Nc1ccccc1F (centres unmarked)
6. O=C(CCC1CNC(=O)C1C(=O)Nc1ccccc1F)Nc1ccc(F)cc1 (centres unmarked)
7. O=C1NCC(C#Cc2ccc(F)cc2)C1C(=O)Nc1ccccc1F (centres unmarked)
8. O=C1NCC(C#Cc2cccc(Cl)c2)C1C(=O)Nc1ccccc1F (centres unmarked) [Compound 29]

RESULT:
0
0
0
0
20
0
0
0

Provenance of the data: patent US10906873B2
